Target: T1, human IL-18BP (human, UniProt O95998 31-194)
T1 construct: UniProt printed as 095998; also called hIL-18BP
T1 sequence: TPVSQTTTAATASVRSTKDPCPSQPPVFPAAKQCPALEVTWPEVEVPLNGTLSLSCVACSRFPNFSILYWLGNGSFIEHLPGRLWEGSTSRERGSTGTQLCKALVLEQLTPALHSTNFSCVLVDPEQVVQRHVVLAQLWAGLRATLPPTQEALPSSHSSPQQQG
Experiment: BLI, apparent KD
Recorded measurements of Kd, one per entry
// units = nM; emit number, no label

These recorded examples may help you get a feel for the data.
BINDER: SA301a HC-Y50A (antibody, name in Kabat numbering, V domains shown, IgG1 kappa) VH: QVQLQESGPGLVKPSQTLSLTCTVSGYSITSDYNSHWIRQPPGKGLEWIGAIHYSGSTNYNPSLKSRVTISRDTSKNQFSLKLSSVTAADTAVYYCARNYGSIYVNYFDYWGQGTLVTVSS VL: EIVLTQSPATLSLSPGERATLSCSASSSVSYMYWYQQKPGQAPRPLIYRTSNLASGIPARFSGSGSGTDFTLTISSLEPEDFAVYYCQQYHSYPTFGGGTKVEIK
OBSERVABLE: Kd
RECORDED_RESULT: 2.97

BINDER: SA301a HC-Y50M (antibody, name in Kabat numbering, V domains shown, IgG1 kappa) VH: QVQLQESGPGLVKPSQTLSLTCTVSGYSITSDYNSHWIRQPPGKGLEWIGMIHYSGSTNYNPSLKSRVTISRDTSKNQFSLKLSSVTAADTAVYYCARNYGSIYVNYFDYWGQGTLVTVSS VL: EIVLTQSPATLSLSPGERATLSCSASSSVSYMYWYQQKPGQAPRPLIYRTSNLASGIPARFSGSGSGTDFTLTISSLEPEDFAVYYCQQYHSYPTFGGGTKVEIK
OBSERVABLE: Kd
RECORDED_RESULT: 2.06

BINDER: SA301a HC-H52V (antibody, name in Kabat numbering, V domains shown, IgG1 kappa) VH: QVQLQESGPGLVKPSQTLSLTCTVSGYSITSDYNSHWIRQPPGKGLEWIGYIVYSGSTNYNPSLKSRVTISRDTSKNQFSLKLSSVTAADTAVYYCARNYGSIYVNYFDYWGQGTLVTVSS VL: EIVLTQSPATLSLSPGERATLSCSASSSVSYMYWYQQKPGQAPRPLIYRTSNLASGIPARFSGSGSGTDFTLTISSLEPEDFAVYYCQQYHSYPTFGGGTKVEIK
OBSERVABLE: Kd
RECORDED_RESULT: 0.34

BINDER: SA301a HC-Y50P (antibody, name in Kabat numbering, V domains shown, IgG1 kappa) VH: QVQLQESGPGLVKPSQTLSLTCTVSGYSITSDYNSHWIRQPPGKGLEWIGPIHYSGSTNYNPSLKSRVTISRDTSKNQFSLKLSSVTAADTAVYYCARNYGSIYVNYFDYWGQGTLVTVSS VL: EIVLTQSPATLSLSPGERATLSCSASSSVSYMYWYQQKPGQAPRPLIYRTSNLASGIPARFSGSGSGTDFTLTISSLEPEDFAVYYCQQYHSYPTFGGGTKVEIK
OBSERVABLE: Kd
RECORDED_RESULT: 1.08

Switching to the query record.
Which Kd value belongs to SA301a HC-Y50E (antibody, name in Kabat numbering, V domains shown, IgG1 kappa) VH: QVQLQESGPGLVKPSQTLSLTCTVSGYSITSDYNSHWIRQPPGKGLEWIGEIHYSGSTNYNPSLKSRVTISRDTSKNQFSLKLSSVTAADTAVYYCARNYGSIYVNYFDYWGQGTLVTVSS VL: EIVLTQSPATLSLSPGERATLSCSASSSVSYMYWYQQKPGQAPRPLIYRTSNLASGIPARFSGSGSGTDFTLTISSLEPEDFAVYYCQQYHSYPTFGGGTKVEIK ?
3.44

The measurements presented in this section are drawn from patent US20250368745A1.
